Tested on: RSV strain A2
Assay: RSV HEp-2 EC50 (infectious cytopathic cell protection assay)
Assay type: cell-based
Conditions: human respiratory syncytial virus, HEp-2, 96 h, HEp-2 cells, RSV A2, 4 days; read-out: RSV HEp-2 EC50
Experimental: Antiviral activity against RSV is determined using an infectious cytopathic cell protection assay in HEp-2 cells. In this assay, compounds inhibiting viral infection and/or replication produce a cytoprotective effect against the virus-induced cell killing that can be quantified using a cell viability reagent. The techniques used here are novel adaptations of methods described in published literature (Chapman et al., Antimicrob Agents Chemother. 2007, 51(9):3346-53.) […]
Label key: 1 (yes) means EC50 under 1000 nM; 0 (no) means EC50 of 1000 nM or more.

| compound | label value |
| --- | --- |
| CCOC(=O)[C@H](CCCCNC(C)=O)NP(=O)(OC[C@@]1(C#N)O[C@@H](c2ccc3c(N)ncnn23)[C@H](O)[C@@H]1O)Oc1ccccc1 (mixture of isomers) | 0 (no) |
| C[C@H](NP(=O)(OC[C@@]1(C#N)O[C@@H](c2ccc3c(N)ncnn23)[C@H](O)[C@@H]1O)Oc1ccccc1)C(=O)OCCC(C)(C)C (single isomer, unassigned) [Example 252] | 1 (yes) |
| C[C@H](N)C(=O)OCCNP(=O)(OC[C@@]1(C#N)O[C@@H](c2ccc3c(N)ncnn23)[C@H](O)[C@@H]1O)Oc1ccccc1 (stereo partly shown) | 0 (no) |
| CC(C)[C@H](N)C(=O)Nc1ncnn2c([C@@H]3O[C@](C#N)(CO[P@@](=O)(N[C@@H](C)C(=O)OC4CCCCC4)Oc4ccccc4)[C@@H](O)[C@H]3O)ccc12 | 0 (no) |
| C[C@H](NP(=O)(OC[C@@]1(C#N)O[C@@H](c2ccc3c(N)ncnn23)[C@H](O)[C@@H]1O)Oc1ccccc1)C(=O)OC1CCOC(C)(C)C1 (stereo partly shown) | 0 (no) |

Request: API: query returns whether the compound falls strictly under 1000 nM in EC50. Query: CCC(CC)COC(=O)[C@H](C)N[P@](=O)(OC[C@@]1(C#N)O[C@@H](c2ccc3c(N)ncnn23)[C@H](O)[C@@H]1O)Oc1ccccc1 (single isomer, unassigned)
Response: 1 (yes)

Request: API: query returns whether the compound falls strictly under 1000 nM in EC50. Query: CCCCCCCCCCCCCCCCOCCCNP(=O)(OC[C@@]1(C#N)O[C@@H](c2ccc3c(N)ncnn23)[C@H](O)[C@@H]1O)Oc1ccccc1 (stereo partly shown)
Response: 0 (no)

Request: API: query returns whether the compound falls strictly under 1000 nM in EC50. Query: CC(C)OC(=O)C1(NP(=O)(OC[C@@]2(C#N)O[C@@H](c3ccc4c(N)ncnn34)[C@H](O)[C@@H]2O)Oc2ccccc2)CCC1 (mixture of isomers)
Response: 0 (no)

Request: API: query returns whether the compound falls strictly under 1000 nM in EC50. Query: N#C[C@]1(COP(=O)(NCC(=O)OC2CCCC2)Oc2ccccc2)O[C@@H](c2ccc3c(N)ncnn23)[C@H](O)[C@@H]1O (mixture of isomers) [Example 112]
Response: 0 (no)

Request: API: query returns whether the compound falls strictly under 1000 nM in EC50. Query: COC(C)(C)COC(=O)[C@H](C)NP(=O)(OC[C@@]1(C#N)O[C@@H](c2ccc3c(N)ncnn23)[C@H](O)[C@@H]1O)Oc1ccccc1 (stereo partly shown)
Response: 0 (no)

Request: API: query returns whether the compound falls strictly under 1000 nM in EC50. Query: C[C@H](N[P@](=O)(OC[C@@]1(C#N)O[C@@H](c2ccc3c(N)ncnn23)[C@H](O)[C@@H]1O)Oc1ccccc1)C(=O)OC1CCCCC1 (single isomer, unassigned)
Response: 1 (yes)

Request: API: query returns whether the compound falls strictly under 1000 nM in EC50. Query: CC(C)OC(=O)[C@H](C)N[P@](=O)(OC[C@@]1(C#N)O[C@@H](c2ccc3c(N)ncnn23)[C@H](O)[C@@H]1OC(=O)C(C)C)Oc1ccccc1 (single isomer, unassigned)
Response: 1 (yes)

Request: API: query returns whether the compound falls strictly under 1000 nM in EC50. Query: CCOC(=O)[C@H](C)N[P@](=O)(OC[C@@]1(C#N)O[C@@H](c2ccc3c(N)ncnn23)[C@H](O)[C@@H]1O)Oc1ccccc1
Response: 1 (yes)

Numbers sourced from patent US20230295201A1.
